In this section, each of the compounds is paired with its reported INHIBITION.
# Tested on: Plasmodium berghei
# procedure.details: Screen against P. berghei liver stage (PbLuc), transformed with Luciferase, at 10uM
# Format: functional, HepG2
# run.parameters: tested at 10 uM
Out of some 69,000 compounds screened, about 8,600 (12%) showed an effect of 50% or more. Many of the other results were omitted from the sample, so strong results are more common in it than they were.
measured.endpoint: INHIBITION (%)

1) OC1CCN(CCCn2ccnc2-c2c[nH]cn2)CC1    -0.273
2) O=C(c1c[nH]cn1)N1CCC(F)(F)C2(CCN(c3cnccn3)C2)C1 (stereo unspecified)    52.3
3) CN(C)C[C@H]1OC[C@@H]2CCN(S(=O)(=O)c3cccs3)C[C@@H]21    38.7
4) O=C(NCCO)Nc1cccc(Cl)c1SC(F)F    13
5) CNC(=O)CCNC(=O)Nc1cccc(Cl)c1SC(F)F    60.3
6) O=C(Nc1ccc(F)cc1)N1C[C@@H]2C[C@H](C(=O)N3CCCC3)[C@H](C1)O2    7.67
7) O=C(NCC1(N2CCOCC2)CCSC1)Nc1ccc(F)cc1 (stereo unspecified)    23.5
8) O=C(c1c[nH]cn1)N1CCC(F)(F)C2(CCN(c3ncccn3)C2)C1 (stereo unspecified)    2.41
9) CCNC(=O)CNC(=O)Nc1cccc(Cl)c1SC(F)F    64.3
10) O=C(c1c[nH]cn1)N1CCC(F)(F)C2(CCN(c3ccccn3)C2)C1 (stereo unspecified)    34.6
11) Cc1ccc(NC(=O)NCC2(N3CCOCC3)CCSC2)c(C)c1 (stereo unspecified)    74.2
